- study system: T1, GST-Bag Full (GST fusion of full-length human BAG2) (human, UniProt O95816 1-211)
- T1 construct: Expressed in HEK293T cells, tested in cell lysate by immunoblot; band at about 50 kDa; also called GST-Bag Full vector product; full-length BAG2 polypeptide; not shown: GST tag from the pcDNA3.1+/GST vector, about 26 kDa
- T1 sequence (O95816 whole entry, the tested form may be a part): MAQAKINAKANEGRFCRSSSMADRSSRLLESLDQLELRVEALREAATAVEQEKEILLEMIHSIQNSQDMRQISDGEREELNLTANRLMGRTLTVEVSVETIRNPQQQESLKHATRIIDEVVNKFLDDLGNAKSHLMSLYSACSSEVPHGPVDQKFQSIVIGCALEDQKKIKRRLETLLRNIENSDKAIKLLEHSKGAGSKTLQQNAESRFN
- assay protocol: immunoblot on lysate of HEK293T cells transfected with GST-Bag Full vector

binder	binding result
4C2 antibody (antibody, V domains shown, Mouse monoclonal antibody from a hybridoma; also called anti-BAG2 antibody 4C2) VH: QVQLQQPGAELVRPGASVTLSCKASGYTFTDYEMHWVKQTPVHGLEWIGIIDPETGATAYNQKFKGKATLTADKSSSTAYMELRSLTSEDSAVYYCTRGKFYYSGRDYAMDYWGQGTSVTVSS VL: DVLMTQTPLSLPVSLGDQASISCRSSQSIVHSNGNTYLEWYLQKPGQSPKLLFYKVSNRFSGVPDRFSGSGSGTDFTLKISRVEAEDLGVYFCFQGSQVPPTFGGGTKLEIK	binds
9B12 antibody (antibody, V domains shown, Mouse monoclonal antibody from a hybridoma; Capture antibody in the sandwich ELISA; also called anti-BAG2 antibody 9B12) VH: QVQLQQSGAELVRPGTSVKVSCKASGYAFTNYMIEWIKQRPGQGLEWIGVINPGSGGSYYNEKVKGKATLTADRSSSTAYMQFSSLTADDSGVYFCRIYGNYKGYFDHWGQGTTLTVSS VL: DIVMTQSPSSMYASLGERVTITCKASQDMNSYLSWFQQKPGKSPKTLIYRANRLVDGVPSRFSGSGSGQDYSLTISSLEYEDMGIYYCLQNDEFPFTFGSGTKLEMK	binds
2A11 antibody (antibody, V domains shown, Mouse monoclonal antibody from a hybridoma; Capture antibody in the sandwich ELISA; also called anti-BAG2 antibody 2A11) VH: QVQLQQPGAELVRPGASVTLSCKASGYTFTDYEMHWVKQTPVHGLEWIGIIDPETGGTAYNQKFKGKATLTADKSSSTAYMELRSLTSEDSAVYYCTRGKFYYSGRDYAMDYWGQGTSVTVSS VL: DVLMTQTPLSLPVSLGDQASISCRSSQSIVHSNGNTYLEWYLQKPGQSPKLLIYKVSNRFSGVPDRFSGSGSGTDFTLKISRVEAEDLGVYFCFQGSQVPPTFGGGTKLEIK	binds

Hey, just so you know, these numbers are from patent US12583915.
